# System: Mycobacterium tuberculosis
# assay: Cornell - Phenotypic assay to identify agents that inhibit growth of Mycobacterium tuberculosis
# Format: functional
# Set-up: scale not given: direction of the effect not stated beside the values
# condition: 10 mM as filed; unlikely as a test dose
Among all 53,000 compounds or so, about 900 (1.7%) showed an effect of 50% or more. What follows is part of a selection rich in strong results, with near analogues and random picks from the rest.
# Percent Effect values compiled below
Response body: numeric value in %, unit text excluded.

[
  {
    "compound": "COc1cccc(N2CCN(Cc3ccc4occc4c3)CC2=O)c1",
    "measurement type": "Percent Effect",
    "numeric value": 21.65
  },
  {
    "compound": "COc1cccc(N2CCN(Cc3cccc(CCN)c3)CC2=O)c1",
    "measurement type": "Percent Effect",
    "numeric value": 56.89
  },
  {
    "compound": "OC(CN(Cc1ccccc1)Cc1ccncc1)c1cccs1 (stereo unspecified)",
    "measurement type": "Percent Effect",
    "numeric value": 4.252
  },
  {
    "compound": "Cc1cnc(CN(Cc2ccccc2)CC(O)c2cccs2)cn1 (stereo unspecified)",
    "measurement type": "Percent Effect",
    "numeric value": -16.83
  },
  {
    "compound": "OC1(CNCCc2csc(-c3cccnc3)n2)CCNC1 (stereo unspecified)",
    "measurement type": "Percent Effect",
    "numeric value": 6.154
  },
  {
    "compound": "NCCc1cccc(CN2CCN(c3cccc(Cl)c3)C(=O)C2)c1",
    "measurement type": "Percent Effect",
    "numeric value": 12.48
  },
  {
    "compound": "NCCc1cccc(CN2CCN(c3ccccc3)C(=O)C2)c1",
    "measurement type": "Percent Effect",
    "numeric value": -23.11
  },
  {
    "compound": "COc1cc(CN2CCN(c3cccc(OC)c3)C(=O)C2)cc(OC)c1",
    "measurement type": "Percent Effect",
    "numeric value": 8.627
  }
]

QUERY: Fill blank: measured Percent Effect of the compound `CCCn1cc(Cl)c(C(=O)N2C[C@H]3C[C@H](OC)C[C@H]3C2)n1` is ____.
RESULT: 4.304

QUERY: Continue with `COCC[C@]1(O)CCN(Cc2nc(C)cs2)C[C@H]1C`
RESULT: -15.54

QUERY: What do you get for Cc1cc(NC2CCCN(Cc3ccc(F)cc3)C2)n2nc(C)cc2n1 (stereo unspecified) ?
RESULT: 55.74

---

# Tested on: Mycobacterium tuberculosis
# assay: Cornell - Phenotypic assay to identify agents that inhibit growth of Mycobacterium tuberculosis
# Format: functional
# Set-up: scale not given: direction of the effect not stated beside the values
# condition: 10 mM as filed; unlikely as a test dose
Among all 53,000 compounds or so, about 900 (1.7%) showed an effect of 50% or more. What follows is part of a selection rich in strong results, with near analogues and random picks from the rest.
measurement type: Percent Effect (%)
Record the value in %, omitting the unit from your answer.

Recorded results for 4 compounds are shown here.
[
  {
    "compound": "COCC(O)CN1CCC(=O)N(CC=C(C)C)Cc2ccccc21 (stereo not drawn)",
    "unit info": "%",
    "numeric value": -1.382
  },
  {
    "compound": "Cc1noc([C@H]2C[C@H]3OCC[C@H]3N(Cc3ccc4c(c3)OCO4)C2)n1.O=C(O)C(F)(F)F",
    "unit info": "%",
    "numeric value": 10.54
  },
  {
    "compound": "CCCn1nccc1C(=O)Nc1nc(C)c(C)s1",
    "unit info": "%",
    "numeric value": 63.52
  },
  {
    "compound": "COc1cccc(C(=O)Oc2cc(=O)n3cccc(C)c3n2)c1",
    "unit info": "%",
    "numeric value": 35.2
  }
]

QUERY: So what does the record say about Percent Effect for Cc1nn2c(N3CCC(O)C3)cc(-c3ccccc3)nc2c1C (stereo not drawn) ?
RESULT: 16.78

QUERY: Now this one: COc1c(C)cnc(CN2CCCC2c2noc(C)n2)c1C (stereo not drawn)
RESULT: -16.92

QUERY: # repeat for `COC(=O)C1CCN(C(=O)c2ccc(N(C)S(C)(=O)=O)c(C)c2)CC1`
RESULT: -22.29

QUERY: How about `Cc1noc(C)c1S(=O)(=O)N1CCc2nc(C3CCNCC3)ncc2C1.Cl` ?
RESULT: 6.846

QUERY: Please answer likewise for `CC(=O)NCc1cc2n(n1)CCN(Cc1cccc(Cl)c1Cl)C2`
RESULT: 13.71

QUERY: Here is the next compound: CC(C)c1n[nH]c(C2CN(C(=O)c3ncoc3C(C)C)CCO2)n1 (stereo not drawn)
RESULT: -2.194

QUERY: One more compound: `Cc1nn2c(N3CCC(O)CC3)cc(-c3ccccc3)nc2c1C`
RESULT: 72.96

QUERY: How about CC(C)c1cc(C2CCCN2C(=O)c2cn3ccsc3n2)no1 (stereo not drawn) ?
RESULT: 31.59

QUERY: Consider next the compound O=C(CCCOCc1ccccc1)N1CCCC(c2ncc[nH]2)C1 (stereo not drawn) in the same way.
RESULT: 18.83
